tested.system: Phosphatidylinositol 4,5-bisphosphate 3-kinase catalytic subunit gamma isoform (Homo sapiens, UniProt P48736)
Sequence (P48736 whole entry, canonical isoform): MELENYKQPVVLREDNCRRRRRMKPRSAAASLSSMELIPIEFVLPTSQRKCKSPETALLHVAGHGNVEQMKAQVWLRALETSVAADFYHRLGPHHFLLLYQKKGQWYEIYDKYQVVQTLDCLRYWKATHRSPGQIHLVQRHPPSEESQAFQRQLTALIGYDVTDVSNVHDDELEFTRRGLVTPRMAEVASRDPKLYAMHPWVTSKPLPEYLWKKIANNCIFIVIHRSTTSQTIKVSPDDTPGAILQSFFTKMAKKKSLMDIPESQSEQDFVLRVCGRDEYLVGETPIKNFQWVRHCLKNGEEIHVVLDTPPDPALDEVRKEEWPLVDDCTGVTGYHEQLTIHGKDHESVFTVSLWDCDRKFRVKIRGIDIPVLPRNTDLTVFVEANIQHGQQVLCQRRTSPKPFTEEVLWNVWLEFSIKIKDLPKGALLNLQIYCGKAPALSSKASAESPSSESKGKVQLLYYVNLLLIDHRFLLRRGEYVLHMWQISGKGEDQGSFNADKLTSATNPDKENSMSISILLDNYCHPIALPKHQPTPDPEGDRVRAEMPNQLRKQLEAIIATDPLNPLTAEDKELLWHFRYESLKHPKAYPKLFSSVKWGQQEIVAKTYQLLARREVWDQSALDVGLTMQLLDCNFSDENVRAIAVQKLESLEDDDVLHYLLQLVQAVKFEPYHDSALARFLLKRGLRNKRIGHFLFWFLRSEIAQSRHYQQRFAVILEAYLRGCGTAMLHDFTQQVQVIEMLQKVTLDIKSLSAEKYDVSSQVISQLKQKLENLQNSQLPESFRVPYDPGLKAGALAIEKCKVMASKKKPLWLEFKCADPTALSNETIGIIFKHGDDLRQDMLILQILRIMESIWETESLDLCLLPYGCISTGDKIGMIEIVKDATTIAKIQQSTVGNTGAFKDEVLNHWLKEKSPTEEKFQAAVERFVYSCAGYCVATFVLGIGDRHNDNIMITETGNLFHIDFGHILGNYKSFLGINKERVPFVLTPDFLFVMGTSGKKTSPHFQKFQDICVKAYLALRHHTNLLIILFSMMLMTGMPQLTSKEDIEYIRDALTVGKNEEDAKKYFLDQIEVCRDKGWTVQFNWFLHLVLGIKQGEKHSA
test.method.notes: Inhibition of recombinant human N-terminal His6-tagged full length P120gamma expressed in baculovirus infected Sf21 insect cells using PIP2 as substrate preincubated for 15 mins followed by substrate addition and measured after 60 mins by HTRF assay
Criterion: IC50 strictly under 8 µM. Met: YES. Not met: NO.

> print(dat)
                            molecule.smiles  cat
1  COc1ncc(C2=CCOCC2)cc1S(=O)(=O)Nc1cncc(-c2ccc(CN3CCN(C(C)C)CC3)cc2)c1  YES

Now look at this one.
API: query returns whether the molecule falls strictly under 8 µM in IC50. Query: COc1ncc(C2=CCOCC2)cc1S(=O)(=O)Nc1cncc(-c2ccc(CN3C[C@@H](C)N(C)[C@@H](C)C3)cc2)c1
YES

---

Property: log10 IC50; scope: individual compounds
tested.system: Phosphatidylinositol 4,5-bisphosphate 3-kinase catalytic subunit gamma isoform (Homo sapiens)
test.method.notes: Inhibition of recombinant human N-terminal His6-tagged full length P120gamma expressed in baculovirus infected Sf21 insect cells using PIP2 as substrate preincubated for 15 mins followed by substrate addition and measured after 60 mins by HTRF assay
The common logarithm of IC50 in µM is what is listed.

Sample answers from the record:
> print(dat)
                                   compound  endpoint.value
1  COc1ncc(N2CCOCC2)cc1S(=O)(=O)Nc1cncc(-c2ccc(CN3CCN(C(C)C)CC3)cc2F)c1            0.40
2  COc1ncc(N2CCOCC2)cc1S(=O)(=O)Nc1ccnc(-c2ccc(CN3CCN(C(C)C)CC3)c(F)c2)c1            0.60

The recorded log10 IC50 for COc1ncc(N2CCOCC2)cc1S(=O)(=O)Nc1ccnc(-c2ccc(CN3C[C@@H](C)O[C@@H](C)C3)cc2F)c1 is -0.60

The recorded log10 IC50 for COc1ncc(C2=CCOCC2)cc1S(=O)(=O)Nc1cncc(C2CC2CN(C)C)c1 (configuration not stated) is 0.90

The recorded log10 IC50 for COc1ncc(N2CCOCC2)cc1S(=O)(=O)Nc1cncc(-c2ccc(CN3CCCC3)c(F)c2)c1 is 1.00

The recorded log10 IC50 for COc1ncc(C2=CCOCC2)cc1S(=O)(=O)Nc1cncc(-c2ccc(CN3CCN(C)CC3)cc2)c1 is 0.50

The recorded log10 IC50 for COc1ncc(C2=CCOCC2)cc1S(=O)(=O)Nc1ccnc(C)c1 is 0.60

---

test.method.notes: Clearance in Wistar Han rat at 1 mg/kg, po administered via gavage or 1 mg/kg, iv administered as infusion for 1 hr by RP LC-MS/MS analysis
Type: ADME, organism-based
particulars: in vivo
measured.parameter: clearance

The recorded clearance for COc1ncc(N2CCOCC2)cc1S(=O)(=O)Nc1ccnc(-c2ccc(CN3CCN(C(C)C)CC3)cc2F)c1 is 0.228 L/h/kg

---

tested.system: Phosphatidylinositol 4,5-bisphosphate 3-kinase catalytic subunit delta isoform (Homo sapiens, UniProt O00329)
Sequence (O00329 whole entry, canonical isoform): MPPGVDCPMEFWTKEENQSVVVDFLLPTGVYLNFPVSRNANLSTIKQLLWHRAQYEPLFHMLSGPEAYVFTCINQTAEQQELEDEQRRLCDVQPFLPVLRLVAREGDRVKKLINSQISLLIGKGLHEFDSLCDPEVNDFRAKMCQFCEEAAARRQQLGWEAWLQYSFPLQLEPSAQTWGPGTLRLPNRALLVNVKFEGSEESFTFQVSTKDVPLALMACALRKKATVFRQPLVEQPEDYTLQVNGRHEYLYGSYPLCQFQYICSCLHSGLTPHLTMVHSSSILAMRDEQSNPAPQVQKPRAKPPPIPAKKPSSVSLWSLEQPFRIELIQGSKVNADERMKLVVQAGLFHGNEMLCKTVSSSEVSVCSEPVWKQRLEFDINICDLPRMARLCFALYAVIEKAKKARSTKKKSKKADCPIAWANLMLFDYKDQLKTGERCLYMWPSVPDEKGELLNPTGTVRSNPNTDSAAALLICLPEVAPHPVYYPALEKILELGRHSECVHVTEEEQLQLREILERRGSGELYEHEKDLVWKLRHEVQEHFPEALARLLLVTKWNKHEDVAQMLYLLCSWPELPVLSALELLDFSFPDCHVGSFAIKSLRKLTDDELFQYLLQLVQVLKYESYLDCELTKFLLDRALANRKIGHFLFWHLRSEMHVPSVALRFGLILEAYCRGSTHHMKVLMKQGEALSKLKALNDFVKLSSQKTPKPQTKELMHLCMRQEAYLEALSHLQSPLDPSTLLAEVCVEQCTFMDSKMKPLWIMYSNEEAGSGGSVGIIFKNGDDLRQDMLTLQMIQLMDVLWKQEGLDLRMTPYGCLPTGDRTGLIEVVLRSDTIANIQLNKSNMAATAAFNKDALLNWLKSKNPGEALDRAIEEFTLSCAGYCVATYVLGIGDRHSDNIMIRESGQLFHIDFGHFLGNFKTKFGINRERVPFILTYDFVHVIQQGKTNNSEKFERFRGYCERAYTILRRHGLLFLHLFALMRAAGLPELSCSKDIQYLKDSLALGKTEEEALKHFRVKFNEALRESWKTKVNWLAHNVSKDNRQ
test.method.notes: Inhibition of PI3Kdelta in human whole blood assessed as reduction in cytostim-stimulated IFNgamma production preincubated for 1 hr followed by cytostim stimulation and measured after 20 hrs by electrochemiluminescence assay
Property: pIC50; scope: individual compounds
Just the number, please; pIC50 means minus log10 of the concentration in mol/L.

Sample answers from the record:
> print(dat)
                            molecule.smiles  endpoint.value
1  COc1ncc(C2=CCOCC2)cc1S(=O)(=O)Nc1cncc(-c2ccc(CN3CCCC3)cc2)c1            7.50
2  COc1ncc(C2=CCOCC2)cc1S(=O)(=O)Nc1cncc(C#CCN2CCN(C(C)C)CC2)c1            7.30
3  COc1ncc(C2=CCOCC2)cc1S(=O)(=O)Nc1ccnc(C)c1            6.50
4  COc1ncc(C2=CCOCC2)cc1S(=O)(=O)Nc1cncc(C)c1            5.40

Note: attention shifts to another entry.
The recorded pIC50 for COc1ncc(N2CCOCC2)cc1S(=O)(=O)Nc1ccnc(-c2ccc(CN3CCN(C(C)C)CC3)cc2F)c1 is 8.20

Provenance of the data: ChEMBL document CHEMBL4825755
